# Assay conditions: in acetonitrile, 300.65 K
Property measured: solubility (mole fraction)
Lab note: jot down the number only; don't add units.

Inquiry: Give the measured solubility (mole fraction) of `O=C(O)c1ccccc1Nc1ccccc1` .
Reply text: 0.00425

* * *

# Assay conditions: in acetone, 295.65 K
Property measured: solubility (mole fraction)
Kindly provide the number alone.

Inquiry: State the recorded solubility (mole fraction) for this entry: `O=C(O)c1ccccc1Nc1ccccc1`
Reply text: 0.0304

* * *

# Assay conditions: in ethyl acetate, 308.15 K
Property measured: solubility (mole fraction)
Answer with a bare number; do not write a unit.

Inquiry: I would be grateful if you could share the reported solubility (mole fraction) for `O=C(O)c1ccccc1Nc1ccccc1` .
Reply text: 0.0414
